Attribution: PubChem BioAssay

- Test system: Sonic hedgehog protein (Shh)
- ASSAY: small-molecule binders of Shh protein, primary screen, biochemical, small-molecule microarray, 635/667 nm fluorescence (AID 1151);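 also: Shh protein binding to compounds spotted on small-molecule microarray slides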
- ASSAY SETUP: small-molecule microarray binding, 635 nm fluorescence; higher = more signal
The label depends only on composite z-score: YES if it is at least 0.6, NO if it is smaller.

{"columns": ["COMPOUND", "CATEGORY"],
 "data": [
  ["O=C1O[C@H](c2ccccc2)[C@H](c2ccccc2)N2[C@H]1[C@@H](C(=O)Nc1nc3ccccc3s1)[C@]1(C(=O)Nc3ccc(C#CCCO)cc31)[C@H]2c1ccc(OCCO)cc1", "YES"],
  ["O=C1C2C=CC(C(O)c3c(F)cccc3Cl)N(Nc3ccccc3)C2C(=O)N1c1ccccc1 (stereo not drawn)", "NO"],
  ["COCCOC(=O)N1C(=O)[C@@]2(c3cc(C#CCCO)ccc31)[C@H](C(=O)Nc1nc3ccccc3s1)[C@H]1C(=O)O[C@H](c3ccccc3)[C@H](c3ccccc3)N1[C@@H]2c1ccc(OCCO)cc1", "YES"],
  ["CC(C)(C)OC(=O)CC[C@@]12N=C(c3ccc(OCCCO)cc3)O[C@@H]1c1ccccc1N(CCS(=O)(=O)c1ccccc1)C2=O", "YES"],
  ["COc1ccc(C(=O)Nc2ccc(CN3C(=O)[C@@]4(O[C@@H](CC(=O)N5CCC[C@H]5CO)[C@H]([Si](C)(C)c5ccc(OC)cc5)[C@H]4C)c4ccccc43)cc2)cc1", "YES"],
  ["O=C(NCC(F)(F)F)[C@@H]1c2ccccc2C(=O)N(C2CCCCC2)[C@H]1c1ccc(CO)cc1", "NO"],
  ["COc1ccc([Si](C)(C)[C@H]2[C@H](CC(=O)N3CCC[C@H]3CO)O[C@@]3(C(=O)N(Cc4cccc(N5C(=O)c6cccc7cccc5c67)c4)c4ccccc43)[C@@H]2C)cc1", "YES"],
  ["[N-]=[N+]=NCc1ccccc1[C@@H]1OC(c2ccc(OCCCO)cc2)=N[C@]1(Cc1ccccc1N=[N+]=[N-])C(=O)N1CCOCC1", "NO"],
  ["O=C1c2ccccc2[C@@]2(Cc3ccccc3N(CC(F)(F)F)C2=O)[C@H](c2ccc(CO)cc2)N1Cc1ccccc1Cl", "YES"],
  ["CN1C(=O)C2C=CC(C(O)c3ccc(I)cc3)N(N3CCCCC3)C2C1=O (stereo not drawn)", "YES"],
  ["CC(C)C[C@@H]1NC(=O)[C@H]2C[C@@H](C(=O)NCCCCCCN(C)C)[C@@H](c3ccc(O)cc3)N2C1=O", "YES"],
  ["O=C1O[C@@H](c2ccccc2)[C@@H](c2ccccc2)N2[C@@H](c3ccccc3OCCO)[C@]3(C(=O)Nc4ccc(C#CC5=CCCCC5)cc43)[C@@H](C(=O)Nc3nc4ccccc4s3)[C@H]12", "YES"]
]}
